This section presents compounds with their documented GI50 values.
# Tested on: MOLT-4
# methodSummary: NCI tumour cell line growth inhibition, 48 h
Active and inactive are the calls of the source. No stated cut-off is given here; in the data, active = GI50 up to about 1.1 µM and inactive = higher.

# count of solved cases: 4
| compound | valueMeasured |
| --- | --- |
| O=C(O)COc1ccc(C(=O)/C(SS/C(C(=O)c2ccc(OCC(=O)O)c(Cl)c2Cl)=C2\C=C(c3ccc(F)cc3)SS2)=C2/C=C(c3ccc(F)cc3)SS2)c(Cl)c1Cl | 8.67 µM (inactive) |
| CCc1cccc(C(C)C)c1NC(=O)C(=O)Nn1c(S)nc2ccccc2c1=O | > 100 µM (inactive) |
| CS(=O)(=O)OCC1CCCCCCCCCCC12SCCCS2 (stereo not drawn) | > 100 µM (inactive) |
| Cc1ccc(NC(=O)CSC(N)=O)cc1C | 30.8 µM (inactive) |

Looking for the measured GI50 of N#CC1(Nc2ccc(-c3ccc(NC4(C#N)CCCC4)cc3)cc2)CCCC1 , can you help? 86.1 µM (inactive)

Please answer likewise for Cc1csc(NC23CC4CC(CC(C4)C2)C3)[n+]1C(P(=O)([O-])O)P(=O)(O)O (stereo not drawn) > 100 µM (inactive)

----------
# Test system: IGROV-1
# methodSummary: NCI tumour cell line growth inhibition, 48 h
Active and inactive are the calls of the source. No stated cut-off is given here; in the data, active = GI50 up to about 1.1 µM and inactive = higher.
outcomeMeasure: GI50

# count of solved cases: 4
| compound | outcomeMeasure | valueMeasured |
| --- | --- | --- |
| O=C1C=CC(=O)C(CNc2ccc(C(=O)OC34CC5CC(CC(C5)C3)C4)cc2)=C1 | GI50 | 1.54 µM (inactive) |
| CC[C@]1(Cc2ccc(OC)c(OC)c2)[C@@H]2C[C@@H](C3OCCO3)ON2O[C@H](OC2CCCC2(c2ccccc2)c2ccccc2)[C@@H]1OC(C)=O (some centres not stated) | GI50 | 23.3 µM (inactive) |
| CCOC(=O)C(=O)Nc1ccc(Cl)cc1C | GI50 | > 100 µM (inactive) |
| O=C(O)CC1NC(/C(=C/c2ccccc2O)NC(=O)c2ccccc2)OC1=O (configuration not stated) | GI50 | 14.3 µM (inactive) |

Looking for the measured GI50 of CC(O[Si](c1ccccc1)(c1ccccc1)C(C)(C)C)[C@H](NC(=O)OC(C)(C)C)C(=O)O (some centres not stated) , can you help? 20.6 µM (inactive)

Please answer likewise for CCN(CC)c1ccc(/C=C/C2=NN(c3cccc(S(=O)(=O)O)c3)C3(C2)C(Cl)C(=O)N3c2nc3ccccc3s2)cc1 (configuration not stated) 4.88 µM (inactive)

Please answer likewise for OCCN(/N=C\c1ccc2ccccc2c1)C1=NCCN1 35.1 µM (inactive)

Please answer likewise for CCN(CC)C(=S)SC1CCOP(=O)(N(CCCl)CCCl)N1C (configuration not stated) 4.34 µM (inactive)

Please answer likewise for COc1ccc2nc3c([N+](=O)[O-])ccc(NCCCN(C)C)c3c(N)c2c1 1.21 µM (inactive)

----------
# System: NCI-H23
# methodSummary: NCI tumour cell line growth inhibition, 48 h
Activity calls are given as the source filed them. No stated cut-off is given here; in the data, active = GI50 up to about 1.1 µM and inactive = higher.
outcomeMeasure: GI50

# count of solved cases: 2
| compound | outcomeMeasure | valueMeasured |
| --- | --- | --- |
| Fc1ccc(Oc2nc3ccccc3nc2-c2ccccc2)cc1 | GI50 | 42.5 µM (inactive) |
| COc1ccc(Cn2nc(OCc3ccccc3)c3cc([N+](=O)[O-])ccc32)cc1 | GI50 | > 100 µM (inactive) |

Looking for the measured GI50 of CCCCCCCCCCCCSC(=S)c1c(C)[nH]n(-c2ccccc2)c1=O , can you help? 13.3 µM (inactive)
